The compounds listed here are annotated with their logD.
test.description: Distribution coefficient, log D of the compound at pH 7.4
particulars: octanol/water
A bare number is all that is needed in reply.

Examples with their reported logD follow.
Q: Name the recorded logD for `COc1ccccc1NS(=O)(=O)c1cc(C(=O)N2CCN(Cc3ccc4c(c3)OCO4)CC2)ccc1Cl` .
Ans: -0.3

Q: Repeat for the following compound: `O=C(c1cc(S(=O)(=O)Nc2cccc(Cl)c2)c(Cl)cc1Cl)N1CCN(Cc2ccc3c(c2)OCO3)CC1`
Ans: 2.4

Q: Moving on to the next compound: O=C(c1cccc(S(=O)(=O)Nc2ccc(Cl)cc2)c1)N1NC2=C(CCC/C2=C\c2ccco2)C1c1ccco1 (mixture of isomers)
Ans: -0.8

Further cases:
Q: Need logD, item Cc1ccc(-n2c(SCC(=O)N/N=C/c3ccccc3OCC(=O)O)nc3ccccc3c2=O)cc1 (mixture of isomers)
Ans: 4.7

Q: Continue with CCOc1ccccc1/C=N/NC(=O)CSc1nc2ccccc2c(=O)n1-c1ccccc1C (mixture of isomers)
Ans: 5.8

Q: Next: CCOC(=O)c1nn(-c2ccc(C)cc2)c(C)c1C(=O)C1=NOC2C(=O)N(c3ccccc3C)C(=O)C12 (stereo not given)
Ans: -0.1

* * *

test.description: Distribution coefficient, log D of the compound at pH 7.4
particulars: octanol/water
readout.kind: logD

Q: So what does the record say about logD for O=C(O)CCCCCN1C(=O)/C(=C/c2c(N3CCCc4ccccc43)nc3ccccn3c2=O)SC1=S (mixture of isomers) ?
Ans: 8.9

New cases:
Q: I have this compound here, `O=C(c1cc(S(=O)(=O)Nc2ccccc2F)c(Cl)cc1Cl)N1CCN(Cc2ccc3c(c2)OCO3)CC1` , and I need its recorded logD.
Ans: 0.01

Q: `O=C(c1cc(S(=O)(=O)Nc2cccc(C(F)(F)F)c2)ccc1Cl)N1CCN(Cc2ccc3c(c2)OCO3)CC1` , same question.
Ans: -0.1

Q: Follow-up item: `COc1ccccc1NS(=O)(=O)c1ccc2oc(=S)n(CN3CCN(c4ccc(F)cc4)CC3)c2c1`
Ans: 0.2

Measured values drawn from ChEMBL document CHEMBL3102792 for this set.
